The values you see were collected from ChEMBL document CHEMBL1201862.

Tested on: SK-MEL-28
Assay: NCI tumour cell line growth inhibition, 48 h
Calls of active or inactive are those of the source. Cut-off read from the data, not from the text of the source: active = GI50 up to about 1.1 µM and inactive = higher.
Listed next: entries and their corresponding GI50.
readout-name: GI50

compound=CN(/N=C/c1ccc(C(=O)O)cc1)C1=NCCCCN1 readout_name=GI50 recorded_result="> 100 µM (inactive)"
compound=CC(=O)NNc1nc(C)c(C(/C=C/c2ccc(/C=C/C(=N\NC(=O)c3ccncc3)c3sc(NNC(C)=O)nc3C)cc2)=N/NC(=O)c2ccncc2)s1 readout_name=GI50 recorded_result="> 100 µM (inactive)"
compound=N=c1c2c(=S)n(-c3ccccc3)c(=S)n(-c3ccccc3)c2nc(SCCCN2CCCCC2)n1-c1ccccc1 readout_name=GI50 recorded_result="2.11 µM (inactive)"
compound=O=c1c2nc3ccccc3c(=O)n2ncn1-c1ccccc1Cl readout_name=GI50 recorded_result="> 100 µM (inactive)"
compound="COc1cc2[nH]c3c(c2cc1OC)CCN[C@@]31CC[C@@]2(CC3c4c(cc(OC)c(O)c42)CCN3C)C[C@@H]1OC (stereo not given in full)" readout_name=GI50 recorded_result="17.9 µM (inactive)"
compound=O=C(/C=C1\Nc2ccccc2N\C1=C\C(=O)c1ccc(Cl)cc1)c1ccccc1 readout_name=GI50 recorded_result="42.4 µM (inactive)"
compound=Cc1nc2c(n1CC(C)C)C(=O)c1ccccc1C2=O readout_name=GI50 recorded_result="67.9 µM (inactive)"
compound="O=C1CC(CC(OCc2ccccc2)C(COCc2ccccc2)OCc2ccccc2)CC(=O)N1 (stereo not given)" readout_name=GI50 recorded_result="63.4 µM (inactive)"
compound=CN(C)c1ccc(/C=C2/SC(=S)NC2=O)cc1 readout_name=GI50 recorded_result="> 100 µM (inactive)"
compound="COC(=O)c1cc(C)ccc1C1CN=NC12Cc1c(C)cc(C)cc1C2=O (stereo not given)" readout_name=GI50 recorded_result="51.1 µM (inactive)"

----------
Listing of entries alongside the reported GI50.
Tested on: DU-145
Experiment: NCI tumour cell line growth inhibition, 48 h
Activity calls are given as the source filed them. No stated cut-off is given here; in the data, active = GI50 up to about 1.1 µM and inactive = higher.
readout-name: GI50

compound="CC1=NN(C(=O)CC(=O)Nc2ccccc2C)C(=O)C1/N=N\\c1ccc(S(=O)(=O)c2ccc(/N=N/C3C(=O)N(C(=O)CC(=O)Nc4ccccc4C)N=C3C)cc2)cc1 (stereo unspecified)" recorded_result="> 100 µM (inactive)"
compound="CC1C(c2ccc3c(c2)OCO3)c2cc3c(cc2OC1N1CCCC1)OCO3 (stereo unspecified)" recorded_result="34.1 µM (inactive)"
compound=O=[N+]([O-])c1ccc(-n2nc3ccc4c(no[n+]4[O-])c3n2)cc1 recorded_result="35.4 µM (inactive)"
compound="C=CC(=O)NC(O)(C(=O)OCC)C(F)(F)F (stereo unspecified)" recorded_result="> 100 µM (inactive)"
compound=N=c1c2c(=S)n(-c3ccccc3)c(=S)n(-c3ccccc3)c2nc(SCCCN2CCCCC2)n1-c1ccccc1 recorded_result="1.66 µM (inactive)"
compound=Oc1c2cccc1Cc1cccc3c1OCCOCCOCCOCCOc1c(cccc1Cc1cccc(c1O)C3)C2 recorded_result="> 100 µM (inactive)"
compound=Oc1cccc2cc(Cl)cnc12 recorded_result="31.5 µM (inactive)"
compound="CCCCCCCCCCCOCCC1C(C(C)OCCN2CCCC2)OC2OC(C)(C)OC21 (stereo unspecified)" recorded_result="5.43 µM (inactive)"
compound=COc1ccc(OC)c2c(=O)cc(-c3ccccc3)[nH]c12 recorded_result="> 100 µM (inactive)"
compound="CC1=NN(C(=O)CC(=O)N(C(=O)c2ccccc2)c2ccc(Cl)cc2)C(=O)C1/N=N/c1ccc([N+](=O)[O-])cc1 (stereo unspecified)" recorded_result="> 10 µM (inactive)"
compound="COc1cc2c3cc1Oc1c(OC)c(OC)cc4c1C(Cc1ccc(O)c(c1)Oc1ccc(cc1)CC3N(C)CC2)CN(C)C4 (stereo unspecified)" recorded_result="17.7 µM (inactive)"

----------
# GI50 values compiled below
Tested on: NCI-H226
Test: NCI tumour cell line growth inhibition, 48 h
Activity calls are given as the source filed them. Cut-off read from the data, not from the text of the source: active = GI50 up to about 1.1 µM and inactive = higher.
readout-name: GI50

molecule=COc1ccc(/C=C2\N=C3NC(=O)C(N4CCCCC4)=C(N)N3C2=O)cc1 target_or_system=NCI-H226 readout_name=GI50 recorded_result="> 100 µM (inactive)"
molecule="Cc1cn(C2CC(n3cc(Cn4cc(F)c(=O)[nH]c4=O)nn3)C(CO)O2)c(=O)[nH]c1=O (configuration not stated)" target_or_system=NCI-H226 readout_name=GI50 recorded_result="> 100 µM (inactive)"
molecule=O=C1c2cccnc2-c2nccc3c2c1nc1cc(Br)ccc13 target_or_system=NCI-H226 readout_name=GI50 recorded_result="0.216 µM (active)"
molecule=NS(=O)(=O)c1cc2c(cc1Cl)NC(C(=O)c1cc(=O)c3ccc(O)cc3o1)=NS2(=O)=O target_or_system=NCI-H226 readout_name=GI50 recorded_result="> 100 µM (inactive)"
molecule="COC(=O)C1Cc2ccc3c(c2C1=O)CCCC3 (configuration not stated)" target_or_system=NCI-H226 readout_name=GI50 recorded_result="92.9 µM (inactive)"
molecule=NNC(=O)/C(=C/c1ccc(Cl)cc1Cl)NC(=O)c1ccccc1 target_or_system=NCI-H226 readout_name=GI50 recorded_result="> 100 µM (inactive)"
molecule=O=[N+]([O-])c1ccc(/C=C(/c2ccc([N+](=O)[O-])o2)S(=O)(=O)c2ccccc2)cc1 target_or_system=NCI-H226 readout_name=GI50 recorded_result="13.4 µM (inactive)"
molecule=Cc1ccc(/C(C#N)=C/c2cccc([N+](=O)[O-])c2)cc1 target_or_system=NCI-H226 readout_name=GI50 recorded_result="> 100 µM (inactive)"
molecule=Cc1ccc(Cc2nn(C)c(=O)n2N)cc1 target_or_system=NCI-H226 readout_name=GI50 recorded_result="> 100 µM (inactive)"
molecule=C/C=C(/I)CBr target_or_system=NCI-H226 readout_name=GI50 recorded_result="20.6 µM (inactive)"
molecule=Clc1cc(Cl)cc(Nc2nc3ccccc3nc2-c2cccs2)c1 target_or_system=NCI-H226 readout_name=GI50 recorded_result="40 µM (inactive)"
molecule=ClCCCSSCCCCl target_or_system=NCI-H226 readout_name=GI50 recorded_result="> 79.4 µM (inactive)"

----------
Here, each record is paired with measured GI50 data.
System: EKVX
Experiment: NCI tumour cell line growth inhibition, 48 h
Calls of active or inactive are those of the source. Cut-off read from the data, not from the text of the source: active = GI50 up to about 1.1 µM and inactive = higher.
readout-name: GI50

compound=Cc1cccc2c(O)cc(=O)oc12 recorded_result="> 100 µM (inactive)"
compound="CCC1(OC(=O)CN)C(=O)OCc2c1cc1n(c2=O)Cc2cc3ccccc3nc2-1 (configuration not stated)" recorded_result="0.598 µM (active)"
compound=N#Cc1nc2cc(Cl)ccc2nc1N1CCN(c2ccc([N+](=O)[O-])cc2)CC1 recorded_result="> 100 µM (inactive)"
compound="C=CCNC(=O)N(CCC)CCCCC(NC(C)=O)C(=O)NCc1ccccc1 (configuration not stated)" recorded_result="> 100 µM (inactive)"
compound=CC(=O)Nc1[nH]c(=O)[nH]c(=O)c1N(C(C)=O)C(C)=O recorded_result="> 100 µM (inactive)"
compound=CCn1c(=O)nc2n(-c3ccccc3)c3ccccc3nc-2c1=O recorded_result="43.7 µM (inactive)"
compound=Clc1ccc(-c2nnc(-c3nsc4ccccc34)o2)cc1 recorded_result="14.2 µM (inactive)"
compound=COC(=O)C(=O)c1cc2ccccc2n1S(=O)(=O)c1ccccc1 recorded_result="> 100 µM (inactive)"
compound=Cc1ccc(Cc2nn(C)c(=O)n2N)cc1 recorded_result="> 100 µM (inactive)"
compound=N#C[C@H](C(=O)c1ccccc1F)c1nc2ccccc2[nH]1 recorded_result="> 100 µM (inactive)"
compound="OC1[C@@H]2[C@@H](O)[C@H](O)[C@@H](O)N2C[C@@H]1O (some centres not stated)" recorded_result="> 100 µM (inactive)"
compound="CC(C)(C)OC(=O)N1C2CCCC23O[C@@H]1c1cc2c(cc1C3=O)OCO2 (some centres not stated)" recorded_result="43.9 µM (inactive)"
compound=Cc1nc2ccccc2n1Cc1nnc(N)o1 recorded_result="> 100 µM (inactive)"
compound="COC(C)(C)C(O)C(O)C[C@H](C)C1CC=C2C1(C)CCC1[C@@]3(C)CCC(OC(C)=O)C(C)(C)C3CC(OC3OC(COC(C)=O)C(O)C(O)C3O)[C@@]21C (some centres not stated)" recorded_result="4.79 µM (inactive)"
compound=N#C/C(=C/NC(=S)Nc1ccc(S(N)(=O)=O)cc1)C(N)=O recorded_result="> 100 µM (inactive)"
compound=Cc1[nH]c2ncn(/N=C/c3ccccc3O)c(=N)c2c1Cc1ccccc1 recorded_result="25 µM (inactive)"
compound=CN(C)CCCNc1nnc(NCCCN(C)C)c2c(=O)c3sccc3[nH]c12 recorded_result="8.91 µM (inactive)"
compound=Cn1ncc2cc3c(Nc4ccc(Cl)cc4)cccc3nc21 recorded_result="18.1 µM (inactive)"
compound="COC(=O)C1C2CC3C1C3C2C(=O)OC (configuration not stated)" recorded_result="> 100 µM (inactive)"
compound=FC(F)(F)c1ccc2nc(Nc3ccc(Cl)c(Cl)c3)c(-c3ccccc3)nc2c1 recorded_result="> 100 µM (inactive)"
compound=CC1=C(C(=O)Nc2ccccc2)C(c2ccc([N+](=O)[O-])cc2)C(C(=O)Nc2ccccc2)=C(C)N1 recorded_result="21.5 µM (inactive)"
compound=CN(C)c1ccc(/C=C(\C#N)c2nc(-c3cc4ccccc4oc3=O)cs2)cc1 recorded_result="> 50 µM (inactive)"
